All figures here come from the supplement of paper PMC3334620.

# study.target: Stb5 (UniProt P38699)
# Sequence: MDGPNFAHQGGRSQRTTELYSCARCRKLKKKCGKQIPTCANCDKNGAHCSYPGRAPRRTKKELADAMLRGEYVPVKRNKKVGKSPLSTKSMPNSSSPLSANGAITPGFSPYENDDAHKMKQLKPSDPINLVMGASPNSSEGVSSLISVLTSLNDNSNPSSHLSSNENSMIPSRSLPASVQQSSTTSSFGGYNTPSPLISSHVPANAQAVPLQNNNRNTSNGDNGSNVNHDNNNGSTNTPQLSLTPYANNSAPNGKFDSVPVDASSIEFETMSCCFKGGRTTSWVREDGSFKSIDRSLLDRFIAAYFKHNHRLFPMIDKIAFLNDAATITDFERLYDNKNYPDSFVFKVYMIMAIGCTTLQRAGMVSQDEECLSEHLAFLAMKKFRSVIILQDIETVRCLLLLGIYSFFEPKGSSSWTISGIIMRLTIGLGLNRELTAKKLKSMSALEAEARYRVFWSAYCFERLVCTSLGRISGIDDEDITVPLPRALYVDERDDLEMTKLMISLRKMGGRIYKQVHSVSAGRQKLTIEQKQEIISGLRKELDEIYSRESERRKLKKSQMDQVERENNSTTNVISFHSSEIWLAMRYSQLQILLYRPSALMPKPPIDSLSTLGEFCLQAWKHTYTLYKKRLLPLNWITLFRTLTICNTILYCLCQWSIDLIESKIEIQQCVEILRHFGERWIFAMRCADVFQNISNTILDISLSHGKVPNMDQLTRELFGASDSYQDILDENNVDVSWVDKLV
# experiment.summary: PBM E-score (8-mer binding enrichment) (E-score (-0.5 to 0.5)); higher = stronger / more preferred TF binding
# test.parameters: protein concentration: 200 nM; construct: GST-full length
The full ranking holds about 33,000 sequences; the median of “E-score (-0.5 to 0.5)” is about -0.054, and the highest 2% start at about 0.35. The list comes from a sample in which the highest values are over-represented; it also holds close analogues and randomly drawn sequences.
Provide the recorded PBM E-score for the entries that follow.
Answers are plain numbers.

>>> print(df.to_string())
   sequence_chain  metric_name  readout_value
0        GGACGGAA  PBM E-score          0.133
1        CGACGGAC  PBM E-score          0.368
2        ACCCGGTC  PBM E-score          0.204

Below is a list of sequences. For each, state its recorded PBM E-score.
1. CCCCGGTA
2. GGACGGAC
3. CGACGGAG
4. CGCATTTC

Given back:
0.298
0.359
0.339
-0.0467
